# Tested system: recombinant human 5-LO enzyme (Homo sapiens)
# Sequence (P09917 whole entry): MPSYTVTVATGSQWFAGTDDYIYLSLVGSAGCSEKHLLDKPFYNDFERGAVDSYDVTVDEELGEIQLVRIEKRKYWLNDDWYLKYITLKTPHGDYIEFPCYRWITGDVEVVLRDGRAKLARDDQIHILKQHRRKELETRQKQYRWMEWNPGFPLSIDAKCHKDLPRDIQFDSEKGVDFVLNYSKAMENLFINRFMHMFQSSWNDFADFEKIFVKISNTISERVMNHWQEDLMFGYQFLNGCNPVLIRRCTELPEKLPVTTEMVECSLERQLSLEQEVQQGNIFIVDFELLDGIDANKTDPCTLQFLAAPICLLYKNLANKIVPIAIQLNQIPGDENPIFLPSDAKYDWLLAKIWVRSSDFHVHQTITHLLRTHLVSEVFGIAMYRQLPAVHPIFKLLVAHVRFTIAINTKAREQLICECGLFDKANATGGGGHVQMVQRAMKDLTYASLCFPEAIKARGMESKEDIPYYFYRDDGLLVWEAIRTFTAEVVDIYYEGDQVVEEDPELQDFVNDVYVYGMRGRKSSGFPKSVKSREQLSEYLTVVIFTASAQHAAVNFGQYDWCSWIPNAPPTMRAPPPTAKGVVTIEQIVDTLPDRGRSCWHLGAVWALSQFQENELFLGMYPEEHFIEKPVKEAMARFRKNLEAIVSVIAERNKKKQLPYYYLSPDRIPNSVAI
# Assay: Direct 5-LO inhibitory activity in a cell-free assay (H2DCF-DA fluorescence)
# Type: biochemical
Parameter IC50: see the listing below.
Measurement name: IC50 (µM)

O=C(C1CC1)N(O)C[C@H]1CN(c2ccc(N3CCOCC3)c(F)c2)C(=O)O1 | 3.5
CCC(=O)N(O)C[C@H]1CN(c2ccc(N3CCOCC3)c(F)c2)C(=O)O1 | 11.8
CC(C)C(=O)N(O)C[C@H]1CN(c2ccc(N3CCOCC3)c(F)c2)C(=O)O1 | 3.9

====

Measurement name: melting point

CCCCCCCC(=O)N(O)C[C@H]1CN(c2ccc(N3CCOCC3)c(F)c2)C(=O)O1 [PH-251] | 119 to 122 °C
O=C(C1CCC1)N(O)C[C@H]1CN(c2ccc(N3CCOCC3)c(F)c2)C(=O)O1 [PH-245] | 132 to 133.5 °C
CCCCCCC(=O)N(O)C[C@H]1CN(c2ccc(N3CCOCC3)c(F)c2)C(=O)O1 [PH-249] | 123 to 125 °C
NC(=O)N(O)C[C@H]1CN(c2ccc(N3CCOCC3)c(F)c2)C(=O)O1 [PH-238] | 125 to 128 °C
CC(C)CC(=O)N(O)C[C@H]1CN(c2ccc(N3CCOCC3)c(F)c2)C(=O)O1 [PH-239] | 122 to 124.5 °C
